Biological target: UniProtKB P10635
Sequence (P10635 whole entry): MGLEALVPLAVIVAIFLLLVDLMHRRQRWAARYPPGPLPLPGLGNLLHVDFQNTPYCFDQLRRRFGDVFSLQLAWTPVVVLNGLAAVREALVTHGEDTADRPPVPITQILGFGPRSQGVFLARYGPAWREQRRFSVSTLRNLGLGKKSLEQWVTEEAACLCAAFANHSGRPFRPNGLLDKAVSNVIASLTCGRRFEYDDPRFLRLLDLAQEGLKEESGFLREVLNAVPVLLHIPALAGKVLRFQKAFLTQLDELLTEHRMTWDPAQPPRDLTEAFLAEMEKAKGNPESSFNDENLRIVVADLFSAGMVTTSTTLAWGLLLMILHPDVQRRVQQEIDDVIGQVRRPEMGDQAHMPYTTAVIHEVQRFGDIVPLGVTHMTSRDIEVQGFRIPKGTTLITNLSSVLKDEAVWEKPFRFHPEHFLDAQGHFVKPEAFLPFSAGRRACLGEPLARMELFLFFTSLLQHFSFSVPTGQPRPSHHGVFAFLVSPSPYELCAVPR
pIC50: −log10 of the molar value.
reported metric: pIC50

{"columns": ["sample smiles", "tgt", "value observed"],
 "data": [
  ["CCc1nc(-c2ccc3c(c2)CC[C@H]3NC(=O)c2cnn(C)c2)no1", "UniProtKB P10635", "< 4.00"]
]}

###

Test: Solubility of the compound at pH 6.8 by shake flask method
Type: physicochemical
Conditions: buffer
# solubility thermodynamic annotations

{"columns": ["sample smiles", "solubility thermodynamic [µM]"],
 "data": [
  ["Cn1cc(C(=O)N[C@@H]2CCc3cc(-c4noc(C5CC5)n4)ccc32)cn1", 33],
  ["Cc1nc(-c2ccc3c(c2)CC[C@H]3NC(=O)c2cnn(C)c2)no1", 86],
  ["Cn1cc(C(=O)N[C@@H]2CCc3cc(-c4noc(C(F)F)n4)ccc32)cn1", 37],
  ["Cn1cc(C(=O)N[C@@H]2CCc3cc(-c4noc(C5CCC5)n4)ccc32)cn1", 14],
  ["CCc1nc(-c2ccc3c(c2)CC[C@H]3NC(=O)c2cnn(C)c2)no1", 97],
  ["COCc1nc(-c2ccc3c(c2)CC[C@H]3NC(=O)c2cnn(C)c2)no1", 63]
]}

Values from ChEMBL document CHEMBL4831540
